tested.system: δ-opioid receptor (Mus musculus, UniProt P32300)
Construct: from tissue; host or cells: vas deferens of male ddy mice
Sequence (P32300 whole entry): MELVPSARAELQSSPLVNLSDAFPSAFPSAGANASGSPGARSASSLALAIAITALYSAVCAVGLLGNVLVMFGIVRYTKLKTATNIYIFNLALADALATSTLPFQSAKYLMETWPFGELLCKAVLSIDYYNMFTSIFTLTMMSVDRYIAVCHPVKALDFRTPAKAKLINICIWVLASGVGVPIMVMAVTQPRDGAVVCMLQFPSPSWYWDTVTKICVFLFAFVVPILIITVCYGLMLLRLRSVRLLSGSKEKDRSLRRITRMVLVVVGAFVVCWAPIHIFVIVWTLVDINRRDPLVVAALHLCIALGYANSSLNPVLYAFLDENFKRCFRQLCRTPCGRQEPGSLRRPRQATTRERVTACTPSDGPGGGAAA
method.summary: Change in δ-antagonist activity against DPDPE with time in mouse vas deferens (MVD)
experimental.conditions: 15 min; 173 and NTI at 20 nM, 174 and 5'-NTII at 100 nM; read-out: Ke
measurement.label: Kb (nM)
Reply numerically in nM, unit not repeated.

A selection of reference data follows.
- molecule: "Oc1ccc2c3c1O[C@H]1c4[nH]c5cc(N=C=S)ccc5c4C[C@@]4(O)[C@@H](C2)N(CC2CC2)CC[C@]314 [Compound 174]"
  measurement.label: "Kb"
  unit.of.measure: "nM"
  measurement: 4.05
- molecule: "Oc1ccc2c3c1O[C@H]1c4[nH]c5ccccc5c4C[C@@]4(O)[C@@H](C2)N(CC2CC2)CC[C@]314 [NTI, reference compound]"
  measurement.label: "Kb"
  unit.of.measure: "nM"
  measurement: 0.21
- molecule: "Oc1ccc2c3c1O[C@H]1c4[nH]c5ccc(N=C=S)cc5c4C[C@@]4(O)[C@@H](C2)N(CC2CC2)CC[C@]314 [5'-NTII, reference compound]"
  measurement.label: "Kb"
  unit.of.measure: "nM"
  measurement: 43.9

Any idea what Kb was measured for Oc1ccc2c3c1O[C@H]1c4[nH]c5c(N=C=S)cccc5c4C[C@@]4(O)[C@@H](C2)N(CC2CC2)CC[C@]314 [Compound 173] ?
0.19

###

Entries and their Kb values follow.
tested.system: δ-opioid receptor (Mus musculus)
Construct: from tissue; host or cells: vas deferens of male ddy mice
method.summary: Change in δ-antagonist activity against DPDPE with time in mouse vas deferens (MVD)
experimental.conditions: 30 min; 173 and NTI at 20 nM, 174 and 5'-NTII at 100 nM; read-out: Ke
Protocol: In this experiment, ddy male mice were used. […] The contraction of the tissue was recorded on polygraph using isometric transducer. Then 100 nM of the test compound was added. […] The ratio of IC50 values in the presence and absence of the test compound, Ke value (the molar concentration of the test compound necessary for translating the dose-effect curve to the curve of twice dose) and pA2 value were determined. […] Using MVD, the antagonist activities of compounds 173 and 174 against DPDPE were determined. […]
Reply numerically in nM, unit not repeated.

- compound: "Oc1ccc2c3c1O[C@H]1c4[nH]c5c(N=C=S)cccc5c4C[C@@]4(O)[C@@H](C2)N(CC2CC2)CC[C@]314"
  unit.of.measure: "nM"
  Kb: 0.08

Any idea what Kb was measured for `Oc1ccc2c3c1O[C@H]1c4[nH]c5cc(N=C=S)ccc5c4C[C@@]4(O)[C@@H](C2)N(CC2CC2)CC[C@]314` ?
2.15

Any idea what Kb was measured for Oc1ccc2c3c1O[C@H]1c4[nH]c5ccc(N=C=S)cc5c4C[C@@]4(O)[C@@H](C2)N(CC2CC2)CC[C@]314 [5'-NTII, reference compound] ?
15.5

Any idea what Kb was measured for Oc1ccc2c3c1O[C@H]1c4[nH]c5ccccc5c4C[C@@]4(O)[C@@H](C2)N(CC2CC2)CC[C@]314 [NTI, reference compound] ?
0.21

###

Entries and their Kb values follow.
tested.system: δ-opioid receptor (Mus musculus, UniProt P32300)
Construct: from tissue; host or cells: vas deferens of male ddy mice
method.summary: Change in δ-antagonist activity against DPDPE with time in mouse vas deferens (MVD)
experimental.conditions: 60 min; 173 and NTI at 20 nM, 174 and 5'-NTII at 100 nM; read-out: Ke
Reply numerically in nM, unit not repeated.

- compound: "Oc1ccc2c3c1O[C@H]1c4[nH]c5ccc(N=C=S)cc5c4C[C@@]4(O)[C@@H](C2)N(CC2CC2)CC[C@]314 [5'-NTII, reference compound]"
  measurement.label: "Kb"
  measurement: 12
- compound: "Oc1ccc2c3c1O[C@H]1c4[nH]c5cc(N=C=S)ccc5c4C[C@@]4(O)[C@@H](C2)N(CC2CC2)CC[C@]314"
  measurement.label: "Kb"
  measurement: 1.74
- compound: "Oc1ccc2c3c1O[C@H]1c4[nH]c5ccccc5c4C[C@@]4(O)[C@@H](C2)N(CC2CC2)CC[C@]314 [NTI, reference compound]"
  measurement.label: "Kb"
  measurement: 0.24

// below: Kb requested for another compound
Any idea what Kb was measured for `Oc1ccc2c3c1O[C@H]1c4[nH]c5c(N=C=S)cccc5c4C[C@@]4(O)[C@@H](C2)N(CC2CC2)CC[C@]314` ?
0.07
